Molecular target: T1, CEACAM1 antigen (Sino Biological, Inc.) (UniProt P13688 35-428)
T1 construct: Bought antigen, coated on the ELISA plate; construct not described; also called CEACAM1 (CD66a) antigen; CD66a
T1 sequence (looked up): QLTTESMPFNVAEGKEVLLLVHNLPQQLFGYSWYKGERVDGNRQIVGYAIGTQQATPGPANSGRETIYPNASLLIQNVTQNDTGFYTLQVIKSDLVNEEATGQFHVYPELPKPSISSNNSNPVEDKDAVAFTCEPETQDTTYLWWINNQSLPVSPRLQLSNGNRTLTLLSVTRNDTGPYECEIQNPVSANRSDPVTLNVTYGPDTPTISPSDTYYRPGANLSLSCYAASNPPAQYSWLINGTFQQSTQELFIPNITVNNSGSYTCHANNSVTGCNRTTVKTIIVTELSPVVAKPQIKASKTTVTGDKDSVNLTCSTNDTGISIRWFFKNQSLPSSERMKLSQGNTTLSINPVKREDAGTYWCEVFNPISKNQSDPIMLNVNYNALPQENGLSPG
Assay: ELISA, CEACAM1 coated 100 ng/well, antibody at 3333.33 ng/ml
Parameter Measured: OD 450 nm (OD 450 nm)
Write the answer as a number in OD 450 nm, unit excluded.

Some solved cases for reference:
Binder: recombinant humanized anti-CD66c antibody Protein ID 2938 (Vk5 + VH7) (antibody, human IgG1, V domains shown, also called hu 2938) VH: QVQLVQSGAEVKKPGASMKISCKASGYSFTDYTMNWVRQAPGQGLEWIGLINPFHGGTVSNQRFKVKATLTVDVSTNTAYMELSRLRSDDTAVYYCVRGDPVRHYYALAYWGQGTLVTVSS VL: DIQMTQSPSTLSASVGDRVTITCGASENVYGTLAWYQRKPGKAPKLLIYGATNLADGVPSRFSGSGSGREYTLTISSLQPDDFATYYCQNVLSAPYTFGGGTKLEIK
Measure Unit: OD 450 nm
Numeric Readout: 0.27

Binder: recombinant humanized anti-CD66c antibody Protein ID 3007 (Vk7 + VH6) (antibody, human IgG1, V domains shown, also called hu 3007; #43) VH: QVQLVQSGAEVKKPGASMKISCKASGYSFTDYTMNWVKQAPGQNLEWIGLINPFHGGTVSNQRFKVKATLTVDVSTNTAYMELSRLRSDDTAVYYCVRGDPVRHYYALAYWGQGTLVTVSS VL: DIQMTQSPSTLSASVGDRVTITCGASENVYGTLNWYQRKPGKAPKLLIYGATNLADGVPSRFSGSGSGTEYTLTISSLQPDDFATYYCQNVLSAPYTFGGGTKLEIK
Measure Unit: OD 450 nm
Numeric Readout: 1.15

Binder: recombinant humanized anti-CD66c antibody Protein ID 3058 (Vk8 + VH11) (antibody, human IgG1, V domains shown, also called hu 3058; #86) VH: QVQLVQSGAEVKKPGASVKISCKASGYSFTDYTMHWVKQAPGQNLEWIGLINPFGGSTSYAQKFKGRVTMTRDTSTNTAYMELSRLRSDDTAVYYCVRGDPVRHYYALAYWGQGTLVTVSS VL: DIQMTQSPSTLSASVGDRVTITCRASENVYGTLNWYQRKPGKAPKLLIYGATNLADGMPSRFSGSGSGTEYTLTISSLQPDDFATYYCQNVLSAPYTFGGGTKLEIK
Measure Unit: OD 450 nm
Numeric Readout: 0.31

Okay, now this binder:
## Task Consider the binder shown here: anti-CD66c chimeric antibody 8F5 (antibody, human IgG1, V domains shown, also called chimeric 8F5; chi 8F5) VH: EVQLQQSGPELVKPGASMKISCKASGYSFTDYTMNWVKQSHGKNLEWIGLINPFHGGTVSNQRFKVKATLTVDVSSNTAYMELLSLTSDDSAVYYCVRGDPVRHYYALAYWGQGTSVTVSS VL: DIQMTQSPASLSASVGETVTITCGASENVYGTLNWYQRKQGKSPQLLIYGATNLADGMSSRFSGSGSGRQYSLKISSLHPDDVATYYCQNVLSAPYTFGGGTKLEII What is its recorded OD 450 nm?
## Result 1.24
